- Tested on: Mus musculus
- Run Description: Inhibition of 11beta-HSD1 in ICR mouse assessed as conversion of [3H]cortisone to [3H]cortisol at 10 mg/kg, po after 4 hrs by scintillation counting
- Format: functional
Reported values of inhibition in vivo at 10 mg/kg for individual entries

>  <Compound>
Cn1c(-c2ccc(-c3cc(=O)[nH]cn3)cc2)nnc1C1(c2ccc(Cl)cc2)CCC1

>  <Readout Units>
%

>  <inhibition in vivo at 10 mg/kg>
26

$$$$
>  <Compound>
Cn1c(-c2ccc(C(=O)O)cc2)nnc1C1(c2ccc(Cl)cc2)CCC1

>  <Readout Units>
%

>  <inhibition in vivo at 10 mg/kg>
10

$$$$
>  <Compound>
Cn1c(-c2ccc(N)cc2Cl)nnc1C1(c2ccc(Cl)cc2)CCC1

>  <Readout Units>
%

>  <inhibition in vivo at 10 mg/kg>
90

$$$$
>  <Compound>
Cc1noc(C)c1-c1ccc(-c2nnc(C3(c4ccc(Cl)cc4)CCC3)n2C)cc1

>  <Readout Units>
%

>  <inhibition in vivo at 10 mg/kg>
63

$$$$
>  <Compound>
Cn1c(-c2ccc(C(=O)O)cc2Cl)nnc1C1(c2ccc(Cl)cc2)CCC1

>  <Readout Units>
%

>  <inhibition in vivo at 10 mg/kg>
90

$$$$
>  <Compound>
CC(=O)Nc1ccc(-c2nnc(C3(c4ccc(Cl)cc4)CCC3)n2C)c(Cl)c1

>  <Readout Units>
%

>  <inhibition in vivo at 10 mg/kg>
79

$$$$
>  <Compound>
Cn1c(-c2ccc(-c3ccsc3)cc2)nnc1C1(c2ccc(Cl)cc2)CCC1

>  <Readout Units>
%

>  <inhibition in vivo at 10 mg/kg>
81

$$$$
>  <Compound>
CCNC(=O)c1ccc(-c2nnc(C3(c4ccc(Cl)cc4)CCC3)n2C)cc1

>  <Readout Units>
%

>  <inhibition in vivo at 10 mg/kg>
71

$$$$
>  <Compound>
Cn1c(-c2ccc(NC(=O)c3cnccn3)cc2Cl)nnc1C1(c2ccc(Cl)cc2)CCC1

>  <Readout Units>
%

>  <inhibition in vivo at 10 mg/kg>
82

$$$$
>  <Compound>
Cn1c(-c2ccc(C(N)=O)cc2)nnc1C1(c2ccc(Cl)cc2)CCC1

>  <Readout Units>
%

>  <inhibition in vivo at 10 mg/kg>
35

$$$$
>  <Compound>
C1CCCn2c(nnc2C23CC4CC(CC(C4)C2)C3)CC1

>  <Readout Units>
%

>  <inhibition in vivo at 10 mg/kg>
21

$$$$
>  <Compound>
CC(=O)Nc1ccc(-c2nnc(C3(c4ccc(Cl)cc4)CCC3)n2C)cc1

>  <Readout Units>
%

>  <inhibition in vivo at 10 mg/kg>
59

$$$$
>  <Compound>
Cn1c(-c2ccc(-c3cnc(N)nc3)cc2)nnc1C1(c2ccc(Cl)cc2)CCC1

>  <Readout Units>
%

>  <inhibition in vivo at 10 mg/kg>
34

$$$$
>  <Compound>
Cn1c(-c2ccc(NC(=O)c3ccno3)cc2)nnc1C1(c2ccc(Cl)cc2)CCC1

>  <Readout Units>
%

>  <inhibition in vivo at 10 mg/kg>
69

$$$$
>  <Compound>
Cn1c(-c2ccc(-c3cncnc3)cc2)nnc1C1(c2ccc(Cl)cc2)CCC1

>  <Readout Units>
%

>  <inhibition in vivo at 10 mg/kg>
46

$$$$
>  <Compound>
Cn1c(-c2ccc(-c3cccnc3)cc2O)nnc1C1(c2ccc(Cl)cc2)CCC1

>  <Readout Units>
%

>  <inhibition in vivo at 10 mg/kg>
59

$$$$
>  <Compound>
Cn1c(-c2ccc(NC(=O)c3cccs3)cc2)nnc1C1(c2ccc(Cl)cc2)CCC1

>  <Readout Units>
%

>  <inhibition in vivo at 10 mg/kg>
63

$$$$
>  <Compound>
Cc1cc(C(=O)Nc2ccc(-c3nnc(C4(c5ccc(Cl)cc5)CCC4)n3C)cc2)c(C)o1

>  <Readout Units>
%

>  <inhibition in vivo at 10 mg/kg>
91

$$$$
>  <Compound>
Cn1c(-c2ccc(-c3cnccn3)cc2F)nnc1C1(c2ccc(Cl)cc2)CCC1

>  <Readout Units>
%

>  <inhibition in vivo at 10 mg/kg>
91

$$$$
>  <Compound>
Cn1c(-c2ccc(-c3cnccn3)cc2Cl)nnc1C1(c2ccc(Cl)cc2)CC(F)C1 (stereo not given)

>  <Readout Units>
%

>  <inhibition in vivo at 10 mg/kg>
95

$$$$
